Values were extracted from paper PMC12892976.

Parameter log10(IC50): see the listing below.
- Test system: HEK-293T cells
- test method notes: MTT reduction cytotoxicity assay
- Type: cell-based
- conditions used: Homo sapiens, HEK-293T, 72 h, HEK-293T cells, MTT, 72 h; read-out: IC50
Please note: log10 values; quantity IC50; unit µg/mL.

Check out these entries, answers already filled in.
[[record]]
molecule = "CCCCCCCCCCN1CCC[C@H]1C(=O)N[C@@H](CC(=O)OC)C(=O)OC"
system_tested = "HEK-293T cells"
data_value = 0.20

[[record]]
molecule = "CCCCCCCCCCCN1CCC[C@H]1C(=O)N[C@@H](CC(=O)OC)C(=O)OC"
system_tested = "HEK-293T cells"
data_value = 0.96

[[record]]
molecule = "CCCCCCCCCN1CCC[C@H]1C(=O)N[C@@H](CC(=O)OC)C(=O)OC"
system_tested = "HEK-293T cells"
data_value = 1.62

[[record]]
molecule = "CCCCCCCCCCCN1CCC[C@H]1C(=O)N[C@H](CC(=O)OC)C(=O)OC"
system_tested = "HEK-293T cells"
data_value = 0.79


Note: attention shifts to another entry.
Query string: Fill blank: measured log10(IC50) of the molecule "CCCCCCCCCCCCN1CCC[C@H]1C(=O)N[C@@H](CC(=O)OC)C(=O)OC" is ____.
Result string: 0.30

---

- Tested on: Lomentospora prolificans
- test method notes: checkerboard drug interaction (FICI, MICc);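 further: simplified diagonal checkerboard screen pairing antifungals with FPPS inhibitors, FICI calculated under the Loewe additivity model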
- conditions used: in combination with 10-ZOL
endpoint label: antifungal MICc

Previously resolved entries follow.
[[record]]
compound = "C[C@@H](c1ncncc1F)[C@](O)(Cn1cncn1)c1ccc(F)cc1F"
system_tested = "Lomentospora prolificans"
endpoint_label = "antifungal MICc"
data_value = 2

[[record]]
compound = "CCC(C)n1ncn(-c2ccc(N3CCN(c4ccc(OCC5COC(Cn6cncn6)(c6ccc(Cl)cc6Cl)O5)cc4)CC3)cc2)c1=O (stereo not drawn)"
system_tested = "Lomentospora prolificans"
endpoint_label = "antifungal MICc"
data_value = 1


As a next step, examine the compound that follows.
Query string: Fill in the recorded antifungal MICc for this compound, with Lomentospora prolificans as test system: "C[C@@H]1[C@H](O)[C@@H](C)/C=C/C=C/C=C/C=C/C=C/C=C/C=C/[C@H](O[C@@H]2O[C@H](C)[C@@H](O)[C@H](N)[C@@H]2O)C[C@@H]2O[C@](O)(C[C@@H](O)C[C@@H](O)[C@H](O)CC[C@@H](O)C[C@@H](O)CC(=O)O[C@H]1C)C[C@H](O)[C@H]2C(=O)O"
Result string: 4

---

- Tested on: Cryptococcus neoformans
- test method notes: checkerboard drug interaction (FICI, MICc)
- Assay type: cell-based
- conditions used: C. neoformans; ITR:INH combination; fold decrease of ITR MIC
endpoint label: ITR FD (MIC-MICc fold decrease)
API doc: respond with a numeric literal and nothing else, no unit.

Query string: I'd like to know its ITR FD (MIC-MICc fold decrease). The compound in question is CCCCCCCCCN1CCC[C@H]1C(=O)N[C@@H](CC(=O)O)C(=O)O [PLA9]
Result string: -4

Query string: Requested read-out: ITR FD (MIC-MICc fold decrease). Entry: CCCCCCCCCCCCN1CCC[C@H]1C(=O)N[C@H](CC(=O)OC)C(=O)OC [dmPDA12]
Result string: 4

Query string: State the recorded ITR FD (MIC-MICc fold decrease) for this entry: CCCCCCCCCCN1CCC[C@H]1C(=O)N[C@@H](CC(=O)OC)C(=O)OC [dmPLA10]
Result string: 4

Query string: Reported ITR FD (MIC-MICc fold decrease) for CCCCCCCCCCCN1CCC[C@H]1C(=O)N[C@H](CC(=O)OC)C(=O)OC [dmPDA11] : what is it?
Result string: 2

Query string: For CCCCCCCCCCN1CCC[C@H]1C(=O)N[C@H](CC(=O)OC)C(=O)OC [dmPDA10] , what is its reported ITR FD (MIC-MICc fold decrease)?
Result string: 4

Query string: ITR FD (MIC-MICc fold decrease) for O=P(O)(O)C(O)(Cn1ccnc1)P(=O)(O)O [ZOL, zoledronate] ?
Result string: 8

Query string: Endpoint output: ITR FD (MIC-MICc fold decrease) of CCCCCCCCCN1CCC[C@H]1C(=O)N[C@H](CC(=O)O)C(=O)O [PDA9] . Value?
Result string: -4

Query string: For CCCCCCCCCCCN1CCC[C@H]1C(=O)N[C@@H](CC(=O)OC)C(=O)OC [dmPLA11] , what is its reported ITR FD (MIC-MICc fold decrease)?
Result string: 1

Query string: ITR FD (MIC-MICc fold decrease) for CCCCCCCCCCCCN1CCC[C@H]1C(=O)N[C@@H](CC(=O)OC)C(=O)OC [dmPLA12] ?
Result string: 2

---

- System: Cryptococcus neoformans
- test method notes: MIC/MFC broth microdilution (CLSI);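 further: susceptibility testing followed the CLSI M27-Ed4 broth microdilution document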
- conditions used: Cryptococcus neoformans
MFC: recorded values

Field: example entries. Status: answers known.
[[record]]
molecule = "CCCCCCCCCCCN1CCC[C@H]1C(=O)N[C@@H](CC(=O)OC)C(=O)OC [dmPLA11]"
system_tested = "Cryptococcus neoformans"
data_value = "64 µg/mL"

[[record]]
molecule = "O=P(O)(O)C(O)(Cn1ccnc1)P(=O)(O)O [ZOL, zoledronate]"
system_tested = "Cryptococcus neoformans"
data_value = "> 128 µg/mL"

[[record]]
molecule = "CCCCCCCCCN1CCC[C@H]1C(=O)N[C@@H](CC(=O)O)C(=O)O [PLA9]"
system_tested = "Cryptococcus neoformans"
data_value = "> 128 µg/mL"

[[record]]
molecule = "CCCCCCCCCN1CCC[C@H]1C(=O)N[C@H](CC(=O)O)C(=O)O [PDA9]"
system_tested = "Cryptococcus neoformans"
data_value = "> 128 µg/mL"

[[record]]
molecule = "CCCCCCCCCCN1CCC[C@H]1C(=O)N[C@H](CC(=O)OC)C(=O)OC [dmPDA10]"
system_tested = "Cryptococcus neoformans"
data_value = "32 µg/mL"

[[record]]
molecule = "CCCCCCCCCCCCN1CCC[C@H]1C(=O)N[C@H](CC(=O)OC)C(=O)OC [dmPDA12]"
system_tested = "Cryptococcus neoformans"
data_value = "32 µg/mL"


Query string: Fill in: MFC of CCCCCCCCCN1CCC[C@H]1C(=O)N[C@@H](CC(=O)OC)C(=O)OC [dmPLA9] is ___
Result string: > 128 µg/mL

Query string: Return reported MFC; argument: CCCCCCCCCCn1cc[n+](CC(O)(P(=O)(O)O)P(=O)(O)O)c1 [10-ZOL, Decyl-zoledronate]
Result string: 2 µg/mL

Query string: Give the measured MFC of CC(=O)N1CCN(c2ccc(OCC3COC(Cn4ccnc4)(c4ccc(Cl)cc4Cl)O3)cc2)CC1 (stereo not drawn) [KET, ketoconazole] .
Result string: 4 µg/mL

---

- Test system: Rhizopus oryzae
- test method notes: checkerboard drug interaction (FICI, MICc)
- Format: cell-based
- conditions used: in combination with ZOL
# key: entry, value: antifungal MICc
// response body must contain only the number

[[record]]
compound = "C[C@@H]1[C@H](O)[C@@H](C)/C=C/C=C/C=C/C=C/C=C/C=C/C=C/[C@H](O[C@@H]2O[C@H](C)[C@@H](O)[C@H](N)[C@@H]2O)C[C@@H]2O[C@](O)(C[C@@H](O)C[C@@H](O)[C@H](O)CC[C@@H](O)C[C@@H](O)CC(=O)O[C@H]1C)C[C@H](O)[C@H]2C(=O)O"
data_value = 0.13


Query string: Given the entry CCC(C)n1ncn(-c2ccc(N3CCN(c4ccc(OCC5COC(Cn6cncn6)(c6ccc(Cl)cc6Cl)O5)cc4)CC3)cc2)c1=O (centres unmarked) , what antifungal MICc was observed with Rhizopus oryzae?
Result string: 2

---

- Test system: Candida albicans
- test method notes: checkerboard drug interaction (FICI, MICc)
- Format: cell-based
- conditions used: C. albicans; FLC:INH combination; fold decrease of FLC MIC
endpoint label: FLC FD (MIC-MICc fold decrease)
Just the number, please, no unit after it.

Query string: Query (compound): "CCCCCCCCCN1CCC[C@H]1C(=O)N[C@@H](CC(=O)OC)C(=O)OC" ; field requested: FLC FD (MIC-MICc fold decrease)
Result string: -2

Query string: Name the recorded FLC FD (MIC-MICc fold decrease) for O=P(O)(O)C(O)(Cn1ccnc1)P(=O)(O)O [ZOL, zoledronate] .
Result string: 2

Query string: For the compound shown here, "CCCCCCCCCCCN1CCC[C@H]1C(=O)N[C@@H](CC(=O)OC)C(=O)OC" , give the reported FLC FD (MIC-MICc fold decrease).
Result string: 1

Query string: What value of FLC FD (MIC-MICc fold decrease) has been reported for the following compound? "CCCCCCCCCCCCN1CCC[C@H]1C(=O)N[C@@H](CC(=O)OC)C(=O)OC"
Result string: 1

Query string: Name the reported FLC FD (MIC-MICc fold decrease) value associated with the compound "CCCCCCCCCCCN1CCC[C@H]1C(=O)N[C@@H](CC(=O)O)C(=O)O"
Result string: -4

Query string: May I ask what FLC FD (MIC-MICc fold decrease) has been recorded for "CCCCCCCCCCCN1CCC[C@H]1C(=O)N[C@H](CC(=O)OC)C(=O)OC" ?
Result string: 1

Query string: Please report the recorded FLC FD (MIC-MICc fold decrease) for "CCCCCCCCCCCCN1CCC[C@H]1C(=O)N[C@H](CC(=O)OC)C(=O)OC" .
Result string: 1

Query string: Please report the recorded FLC FD (MIC-MICc fold decrease) for "CCCCCCCCCCCCN1CCC[C@H]1C(=O)N[C@H](CC(=O)O)C(=O)O" .
Result string: -2

Query string: Give its FLC FD (MIC-MICc fold decrease) value. Item: "CCCCCCCCCCN1CCC[C@H]1C(=O)N[C@H](CC(=O)OC)C(=O)OC"
Result string: 1

Query string: Field request: FLC FD (MIC-MICc fold decrease) | item: "CCCCCCCCCCN1CCC[C@H]1C(=O)N[C@@H](CC(=O)OC)C(=O)OC"
Result string: 1
